# TARGET_UNDER_TEST: L-lactate dehydrogenase (Plasmodium falciparum (isolate CDC / Honduras)) (UniProt Q27743)
# Sequence (Q27743 whole entry, looked up): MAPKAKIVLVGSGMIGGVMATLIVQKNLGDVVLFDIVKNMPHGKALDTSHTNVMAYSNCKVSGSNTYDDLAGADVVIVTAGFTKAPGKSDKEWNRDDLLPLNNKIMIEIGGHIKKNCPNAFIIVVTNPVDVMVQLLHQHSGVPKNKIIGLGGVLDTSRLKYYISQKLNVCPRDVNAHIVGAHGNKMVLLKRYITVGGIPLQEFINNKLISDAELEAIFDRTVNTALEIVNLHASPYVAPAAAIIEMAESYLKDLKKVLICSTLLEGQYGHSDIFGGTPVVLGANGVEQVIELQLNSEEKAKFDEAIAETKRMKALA
# METHOD_SUMMARY: PfLDH activity inhibition – cell lysate, 3D7 strain, counter-screen for P. falciparum growth inhibition project (AID 2304);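 further: 0% = vehicle and 100% = reference inhibitor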
# EXPERIMENTAL_CONTEXT: P. falciparum 3D7 crude extract, LDH APAD/NBT absorbance; at 2 µM; hits give high values
OBSERVABLE: inhibition (%)
Report the value in % with no unit label.

Completed entries (count: 2):
>>> result("CC(C)(C)c1ccc(-c2cc3c(ccc4nc(N)nc(N)c43)[nH]2)cc1")
5
>>> result("O=C(Nc1cccc(-c2ccc(-c3nc4ccc(F)cc4[nH]3)s2)c1)c1cccnc1")
-5

Q) Hello, I am looking for reported inhibition with L-lactate dehydrogenase (Plasmodium falciparum (isolate CDC / Honduras)) (UniProt Q27743) for CCn1c(SCC(=O)Nc2cc(C(F)(F)F)ccc2Cl)nc2ccccc2c1=O . Could you help?
A) 3

Q) Hello, I am looking for reported inhibition with L-lactate dehydrogenase (Plasmodium falciparum (isolate CDC / Honduras)) (UniProt Q27743) for CN1CCN(CCCN(Cc2ccc(-c3cccc(CNCc4ccc5c(c4)OCO5)c3)cc2)C(=O)NC2CCCCC2)CC1 . Could you help?
A) 4

Q) Hello, I am looking for reported inhibition with L-lactate dehydrogenase (Plasmodium falciparum (isolate CDC / Honduras)) (UniProt Q27743) for O=C(Nc1cccc(CN2CCN(Cc3ccc(O)cc3)CC2)c1)c1cc2ccccc2o1 . Could you help?
A) -3
